Origin of values: patent US20160297884A1

Hi there, I'd appreciate the recorded kon for every entry that follows.
Target: T1, cynomolgus monkey BCMA (cynomolgus monkey, UniProt A0A2K5UD97 1-53)
T1 construct: Soluble analyte in SPR; construct not described; also called cyBCMA; Cyno BCMA
T1 sequence (A0A2K5UD97 entry or part of it): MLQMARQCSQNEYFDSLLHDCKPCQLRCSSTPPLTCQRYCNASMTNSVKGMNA
Experiment: SPR, IgG immobilised, 25 C
One number for each entry, in M⁻¹ s⁻¹.

| BINDER | UNIT | kon |
| --- | --- | --- |
| L1.LGF/L3.KW/H3.AL (antibody, V domains shown, IgG) VH: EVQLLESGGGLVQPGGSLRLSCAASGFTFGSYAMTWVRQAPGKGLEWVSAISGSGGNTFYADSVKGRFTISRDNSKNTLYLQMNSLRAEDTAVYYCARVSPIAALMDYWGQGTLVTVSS VL: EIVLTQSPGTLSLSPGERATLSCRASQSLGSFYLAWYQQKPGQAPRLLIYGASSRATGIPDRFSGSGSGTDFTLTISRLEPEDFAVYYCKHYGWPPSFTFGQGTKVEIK | M⁻¹ s⁻¹ | 290000 |
| L1.GDF/L3.PY/H3.AQ (antibody, V domains shown, IgG) VH: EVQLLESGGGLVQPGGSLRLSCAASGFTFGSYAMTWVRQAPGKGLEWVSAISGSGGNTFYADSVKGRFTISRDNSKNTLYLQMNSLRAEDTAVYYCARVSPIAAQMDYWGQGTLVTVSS VL: EIVLTQSPGTLSLSPGERATLSCRASQSVGDFYLAWYQQKPGQAPRLLIYGASSRATGIPDRFSGSGSGTDFTLTISRLEPEDFAVYYCQHYPYPPSFTFGQGTKVEIK | M⁻¹ s⁻¹ | 1.55e+06 |

Please report kon for every entry that follows.
1. L3.PY/P6E01 (antibody, V domains shown, IgG) VH: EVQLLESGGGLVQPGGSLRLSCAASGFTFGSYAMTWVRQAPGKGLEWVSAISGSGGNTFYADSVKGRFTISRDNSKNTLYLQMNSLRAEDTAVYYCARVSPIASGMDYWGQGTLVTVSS VL: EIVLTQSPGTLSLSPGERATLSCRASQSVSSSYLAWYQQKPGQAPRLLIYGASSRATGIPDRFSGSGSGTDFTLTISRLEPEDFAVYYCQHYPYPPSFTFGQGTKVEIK
2. L1.GDF/L3.NY/P6E01 (antibody, V domains shown, IgG) VH: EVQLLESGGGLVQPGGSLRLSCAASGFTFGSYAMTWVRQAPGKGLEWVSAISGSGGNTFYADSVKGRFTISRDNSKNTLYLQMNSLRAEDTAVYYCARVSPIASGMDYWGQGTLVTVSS VL: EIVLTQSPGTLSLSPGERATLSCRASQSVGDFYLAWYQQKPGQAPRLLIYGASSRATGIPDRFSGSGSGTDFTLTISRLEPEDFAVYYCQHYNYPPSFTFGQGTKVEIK
3. L1.LGF/L3.KW/H3.AQ (antibody, V domains shown, IgG) VH: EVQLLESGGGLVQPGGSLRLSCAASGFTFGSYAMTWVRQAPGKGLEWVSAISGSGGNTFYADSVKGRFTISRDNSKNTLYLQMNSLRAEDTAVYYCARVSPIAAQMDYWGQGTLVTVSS VL: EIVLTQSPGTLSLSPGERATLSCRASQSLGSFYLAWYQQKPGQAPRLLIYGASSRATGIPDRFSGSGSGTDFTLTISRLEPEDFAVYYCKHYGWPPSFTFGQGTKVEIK

855000
1.2e+06
527000
